Tested on: goosegrass
ASSAY REMARKS: Test A postemergence
Format: in vivo, Eleusine indica
MEASUREMENT SETUP: 500 g ai/ha, postemergence, 10 days, visual injury, 0 to 100 scale (0 no effect, 100 complete control)
OBSERVED PROPERTY: Plant response rating, Goosegrass
One number for each entry.

Solved cases (6 shown):
[[record]]
smiles_repr = "CCOc1ccc(-n2cnc(C(C)C)n2)cc1C(=O)N1C[C@H](C)Oc2c(Cl)cccc21"
value_observed = 90

[[record]]
smiles_repr = "Cc1ccc(-n2cnc(C(C)(C)C)n2)cc1C(=O)N1C[C@H](C)Oc2c(C)cccc21"
value_observed = 100

[[record]]
smiles_repr = "CCCCc1ncn(-c2cccc(C(=O)N3C[C@H](C)Oc4c(C)cccc43)c2)n1"
value_observed = 50

[[record]]
smiles_repr = "C[C@H]1CN(C(=O)c2cccc(-n3cnc(C(C)(C)C)n3)c2)c2cccc(Cl)c2O1"
value_observed = 50

[[record]]
smiles_repr = "CCc1ncn(-c2cccc(C(=O)N3C[C@H](C)Oc4c(Cl)cccc43)c2)n1"
value_observed = 90

[[record]]
smiles_repr = "COc1ccc(-n2cnc(C(C)(C)C)n2)cc1C(=O)N1C[C@H](C)Oc2c(Cl)cccc21"
value_observed = 100


Consider the following items and state reported Plant response rating, Goosegrass for each.
1. Cc1cccc2c1O[C@@H](C)CN2C(=O)c1cccc(-n2cnc(C(F)(F)F)n2)c1
2. Cc1cccc2c1O[C@@H](C)CN2C(=O)c1cccc(-n2cnc(C3CCCCC3)n2)c1
3. Cc1ccc(-n2cnc(C3CCC3)n2)cc1C(=O)N1C[C@H](C)Oc2c(C)cccc21

[50, 20, 90]
